target: RGS7 (Homo sapiens (Human), UniProt P49802); test: FCPIA: Gαo binding to RGS7; conditions: Table 7
Sequence (P49802 whole entry, species assumed): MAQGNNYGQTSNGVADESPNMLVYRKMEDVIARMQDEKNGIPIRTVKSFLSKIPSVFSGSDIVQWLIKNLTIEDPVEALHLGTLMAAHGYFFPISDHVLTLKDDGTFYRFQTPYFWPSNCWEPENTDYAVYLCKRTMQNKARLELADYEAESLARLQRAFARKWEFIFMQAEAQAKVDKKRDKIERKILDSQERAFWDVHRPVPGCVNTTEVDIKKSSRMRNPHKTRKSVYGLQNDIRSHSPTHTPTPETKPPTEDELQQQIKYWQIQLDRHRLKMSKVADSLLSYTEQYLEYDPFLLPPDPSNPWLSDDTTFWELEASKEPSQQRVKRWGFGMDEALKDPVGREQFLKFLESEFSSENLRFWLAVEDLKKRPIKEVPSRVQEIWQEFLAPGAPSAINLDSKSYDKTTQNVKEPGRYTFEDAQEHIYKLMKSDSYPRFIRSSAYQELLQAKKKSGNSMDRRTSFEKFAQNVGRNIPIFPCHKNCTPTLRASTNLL
value-type: IC50

Give recorded IC50. CCCCn1c(=O)sn(CC)c1=O > 100 µM

* * *

test system: RGS4; experiment: FCPIA: Gαo binding to RGS4; conditions: Table 3
value-type: RGS4 Hill Slope

Return reported RGS4 Hill Slope for target or system RGS4, item COc1ccc(Cn2c(=O)sn(-c3ccc(Cl)cc3)c2=O)cc1 . −3.26

Return reported RGS4 Hill Slope for target or system RGS4, item COc1ccc(Cn2c(=O)sn(Cc3ccc(C)cc3)c2=O)cc1 . −2.42

Return reported RGS4 Hill Slope for target or system RGS4, item O=c1sn(-c2ccc(Cl)cc2)c(=O)n1Cc1ccc(Cl)c(Cl)c1 . −1.31

Return reported RGS4 Hill Slope for target or system RGS4, item CCCCn1c(=O)sn(C(C)(C)C)c1=O . −3.18

Return reported RGS4 Hill Slope for target or system RGS4, item Cc1cccc(-n2sc(=O)n(Cc3ccc(F)cc3)c2=O)c1 . −1.91

Return reported RGS4 Hill Slope for target or system RGS4, item O=c1sn(-c2cccc(Cl)c2)c(=O)n1Cc1ccccc1 . −1.25

Return reported RGS4 Hill Slope for target or system RGS4, item Cc1ccc(Cn2c(=O)sn(-c3ccc(C)cc3)c2=O)cc1 . −1.35

Return reported RGS4 Hill Slope for target or system RGS4, item O=c1sn(-c2cccc(Cl)c2)c(=O)n1Cc1ccc(F)cc1 . −1.08

Return reported RGS4 Hill Slope for target or system RGS4, item O=c1sn(-c2cccc(C(F)(F)F)c2)c(=O)n1Cc1ccc(F)cc1 . −0.88
